Tested on: microRNA 21
PROTOCOL_TEXT: Selectivity index, ratio of Kd for 5'-FAM/3'-DAB-labeled UGUCGGGUAGCUUAUCAGACUGAUGUUGACUGUUGAAUCUCAUGGCAACACCAGUCGAUGGGCUGUCUGACA pre-miRNA-21 (unknown origin) in presence of double stranded 15-mer 5'-CGTTTTTATTTTTGC-3' DNA to Kd for 5'-FAM/3'-DAB-labeled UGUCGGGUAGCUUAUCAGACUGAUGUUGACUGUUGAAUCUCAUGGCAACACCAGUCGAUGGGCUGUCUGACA pre-miRNA-21 (unknown origin)
Format: nucleic-acid assay
Attribute: Ratio
Lab note: record the figure alone, no unit after it.

Below, 5 molecules whose answers are already recorded.
CC(=O)Nc1nc(-c2cccc(NC(=O)CCC(=O)N[C@@H](Cc3cn(C[C@H]4O[C@@H](O[C@@H]5[C@@H](O)[C@H](N)C[C@H](N)[C@H]5O[C@H]5O[C@H](CN)[C@@H](O)[C@H](O)[C@H]5N)[C@H](O)[C@@H]4O[C@H]4O[C@@H](CN)[C@@H](O)[C@H](O)[C@H]4N)nn3)C(=O)N[C@@H](Cc3c[nH]cn3)C(N)=O)c2)cs1    1.6
Cc1ccc(C(=O)Nc2nc(-c3cccc(NC(=O)CCC(=O)N[C@@H](Cc4cn(C[C@H]5O[C@@H](O[C@@H]6[C@@H](O)[C@H](N)C[C@H](N)[C@H]6O[C@H]6O[C@H](CN)[C@@H](O)[C@H](O)[C@H]6N)[C@H](O)[C@@H]5O[C@H]5O[C@@H](CN)[C@@H](O)[C@H](O)[C@H]5N)nn4)C(=O)N[C@@H](CCCCN)C(N)=O)c3)cs2)cc1    2.5
Cc1ccc(C(=O)Nc2nc(-c3cccc(NC(=O)CCC(=O)N[C@@H](Cc4cn(C[C@H]5O[C@@H](O[C@@H]6[C@@H](O)[C@H](N)C[C@H](N)[C@H]6O[C@H]6O[C@H](CN)[C@@H](O)[C@H](O)[C@H]6N)[C@H](O)[C@@H]5O[C@H]5O[C@@H](CN)[C@@H](O)[C@H](O)[C@H]5N)nn4)C(=O)N[C@@H](Cc4c[nH]cn4)C(N)=O)c3)cs2)cc1    1.7
NC[C@@H]1O[C@H](O[C@H]2[C@@H](O)[C@H](O[C@@H]3[C@@H](O)[C@H](N)C[C@H](N)[C@H]3O[C@H]3O[C@H](CN)[C@@H](O)[C@H](O)[C@H]3N)O[C@@H]2Cn2cc(CCC(=O)Nc3cccc(-c4csc(NC(=O)[C@@H](N)Cc5c[nH]cn5)n4)c3)nn2)[C@H](N)[C@@H](O)[C@@H]1O    1.3
NC[C@@H]1O[C@H](O[C@H]2[C@@H](O)[C@H](O[C@@H]3[C@@H](O)[C@H](N)C[C@H](N)[C@H]3O[C@H]3O[C@H](CN)[C@@H](O)[C@H](O)[C@H]3N)O[C@@H]2CO)[C@H](N)[C@@H](O)[C@@H]1O [FRAMYCETIN]    1.4

Task: State its Ratio on microRNA 21: Cc1ccc(C(=O)Nc2nc(-c3cccc(NC(=O)CCC(=O)N[C@@H](Cc4cn(C[C@H]5O[C@@H](O[C@@H]6[C@@H](O)[C@H](N)C[C@H](N)[C@H]6O[C@H]6O[C@H](CN)[C@@H](O)[C@H](O)[C@H]6N)[C@H](O)[C@@H]5O[C@H]5O[C@@H](CN)[C@@H](O)[C@H](O)[C@H]5N)nn4)C(=O)N[C@@H](C)C(N)=O)c3)cs2)cc1
Output: 2
